- subject-of-test: T1, human CLDN6 (UniProt P56747 1-220)
- T1 chain: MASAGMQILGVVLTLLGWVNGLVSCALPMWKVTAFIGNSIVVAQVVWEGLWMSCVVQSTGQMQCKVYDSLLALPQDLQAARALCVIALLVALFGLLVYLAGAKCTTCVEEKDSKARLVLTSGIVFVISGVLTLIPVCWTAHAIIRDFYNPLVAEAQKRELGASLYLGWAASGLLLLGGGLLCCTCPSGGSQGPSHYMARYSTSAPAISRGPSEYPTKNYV
- experimental-details: HEK293E cell binding; avid
reported-property: EC50 (µg/mL)
Report the value in µg/mL with no unit label.

*Q* Given the entry XENP35936 H2_L1.114 (antibody, V domains shown) VH: EVQLVQSGAEVKKPGESLRISCKTSGYTFTEYTMHWVRQMPGKSLEWMGGIDPNNGNTHYNQKFQGHVTISVDKSISTAYLQWSSLKASDTAMYYCARIYYFGRLYFDFWGAGTLVTVSS VL: DIQMTQSPSSLSASVGDRVTITCQASEDIYNRLAWYQQKPGKVPKLLISGATSLETGVPSRFSGSGSGKDYTFTISSLQPEDIATYYCQQYWSGPLTFGGGTKVEIKR , report its measured EC50.
*A* 0.829

*Q* What about this binder? XENP35981 H2_L1.189 (antibody, V domains shown) VH: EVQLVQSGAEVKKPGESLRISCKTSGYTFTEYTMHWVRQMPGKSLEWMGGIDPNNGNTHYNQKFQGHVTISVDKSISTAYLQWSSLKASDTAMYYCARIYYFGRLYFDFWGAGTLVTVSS VL: DIQMTQSPSSLSASVGDRVTITCQASEDIYLRLAWYQQKPGKVPKLLISGATSLETGVPSRFSGSGSGKDYTFTISSLQPEDIATYYCQQYWSSPLTFGGGTKVEIKR
*A* 0.404
